assay_protocol: In vitro Franz cell skin absorption, nude mouse skin
Type: in vitro ADME
experimental_context: saturated solubility dose; the sentence does not separate nude mouse and pig skin
Method: The cutaneous absorption of flavonoids was assessed using a Franz diffusion cell system. The excised animal skin or cellulose membrane was mounted between the donor and receptor compartments with the SC facing up toward the donor. […] A 300-µL aliquot in the receptor was collected at determined durations, followed by an immediate replacement with fresh receptor medium. The amount of flavonoid in the receptor was determined by HPLC. […]
measured_quantity: S value (CSD/PC)

O=c1c(O)c(-c2cc(O)c(O)c(O)c2)oc2cc(O)cc(O)c12 infinity
O=c1cc(-c2ccccc2)oc2cc(O)c(O)c(O)c12 0
O=c1c(O)c(-c2ccc(O)cc2)oc2cc(O)cc(O)c12 infinity
O=c1c(O)c(-c2ccc(O)c(O)c2)oc2cc(O)cc(O)c12 infinity

* * *

assay_protocol: Saturated solubility in 20% PEG400/pH 7.4 buffer
Assay type: physicochemical
experimental_context: aqueous with cosolvent or surfactant or cyclodextrin, thermodynamic from solid; 20% PEG400/pH 7.4 buffer, 37 °C, 2 h
measured_quantity: solubility at 2 h (µM)
Give the quantity in µM, number only.

Incoming: Supply solubility at 2 h value. Item: C[C@@H]1O[C@@H](OC[C@H]2O[C@@H](Oc3c(-c4ccc(O)c(O)c4)oc4cc(O)cc(O)c4c3=O)[C@H](O)[C@@H](O)[C@@H]2O)[C@H](O)[C@H](O)[C@H]1O
Outgoing: 1840

Incoming: Supply solubility at 2 h value. Item: O=c1cc(-c2ccccc2)oc2cc(O)c(O)c(O)c12
Outgoing: 7.7

Incoming: Supply solubility at 2 h value. Item: O=C(O)[C@H]1O[C@@H](Oc2cc3oc(-c4ccccc4)cc(=O)c3c(O)c2O)[C@H](O)[C@@H](O)[C@@H]1O
Outgoing: 5320

Incoming: Supply solubility at 2 h value. Item: O=c1c(O)c(-c2ccc(O)c(O)c2)oc2cc(O)cc(O)c12
Outgoing: 380

Incoming: Supply solubility at 2 h value. Item: O=c1c(O)c(-c2cc(O)c(O)c(O)c2)oc2cc(O)cc(O)c12
Outgoing: 530

Incoming: Supply solubility at 2 h value. Item: O=c1c(O)c(-c2ccc(O)cc2)oc2cc(O)cc(O)c12
Outgoing: 190

Incoming: Supply solubility at 2 h value. Item: O=C1C[C@@H](c2ccc(O)cc2)Oc2cc(O)cc(O)c21
Outgoing: 3620

* * *

assay_protocol: Capacity factor (log K') by HPLC
Type: physicochemical
experimental_context: HPLC C18, methanol/pH 2 phosphate buffer 1:1
From the text: The HPLC setup for the calculation of log K’ was an HPLC system (7-series, Hitachi, Tokyo, Japan) with a LiChrospher® C18 column (200 × 4.6 mm, Merck, Darmstadt, Germany). The mobile phase consisted of a mixture of methanol and pH 2 phosphate buffer solution (1:1). […] The retention times of flavonoids were detected, and the log K’ was computed as log [(tr − t0)/t0], where tr and t0 were the retention time of the flavonoid and the nonretained solvent peak, respectively.
measured_quantity: log K’
Form rule: numeric answer, no unit written next to it.

Incoming: Supply log K’ value. Item: O=c1c(O)c(-c2cc(O)c(O)c(O)c2)oc2cc(O)cc(O)c12
Outgoing: 0.34

Incoming: Supply log K’ value. Item: C[C@@H]1O[C@@H](OC[C@H]2O[C@@H](Oc3c(-c4ccc(O)c(O)c4)oc4cc(O)cc(O)c4c3=O)[C@H](O)[C@@H](O)[C@@H]2O)[C@H](O)[C@H](O)[C@H]1O
Outgoing: 0.24

Incoming: Supply log K’ value. Item: O=C(O)[C@H]1O[C@@H](Oc2cc3oc(-c4ccccc4)cc(=O)c3c(O)c2O)[C@H](O)[C@@H](O)[C@@H]1O
Outgoing: 0.42

Incoming: Supply log K’ value. Item: O=c1cc(-c2ccccc2)oc2cc(O)c(O)c(O)c12
Outgoing: 0.73
